Values from patent US11999727B2

Exercise: for every item that follows, state its recorded IC50.
# MEASUREMENT_TARGET: PRMT5 (Homo sapiens, UniProt O14744)
# Construct: purchased Viva (custom protein)
# Sequence (O14744 whole entry): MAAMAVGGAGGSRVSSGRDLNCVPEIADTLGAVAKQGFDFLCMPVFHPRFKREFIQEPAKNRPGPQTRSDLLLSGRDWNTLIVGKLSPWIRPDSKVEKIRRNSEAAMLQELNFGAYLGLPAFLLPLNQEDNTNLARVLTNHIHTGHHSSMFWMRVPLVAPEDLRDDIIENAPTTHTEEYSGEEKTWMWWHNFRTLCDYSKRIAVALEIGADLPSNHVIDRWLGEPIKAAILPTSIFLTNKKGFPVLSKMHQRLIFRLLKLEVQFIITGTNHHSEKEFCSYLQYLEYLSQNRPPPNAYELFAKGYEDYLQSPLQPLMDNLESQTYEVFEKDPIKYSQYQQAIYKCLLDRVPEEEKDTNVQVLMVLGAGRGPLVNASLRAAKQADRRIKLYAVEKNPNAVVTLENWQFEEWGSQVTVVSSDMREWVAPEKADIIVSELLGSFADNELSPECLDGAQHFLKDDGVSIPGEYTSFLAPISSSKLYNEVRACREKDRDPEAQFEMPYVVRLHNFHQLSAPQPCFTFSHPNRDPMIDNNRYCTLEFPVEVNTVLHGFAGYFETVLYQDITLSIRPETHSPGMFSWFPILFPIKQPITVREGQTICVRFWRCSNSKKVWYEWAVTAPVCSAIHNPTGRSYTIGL
# Sequence (Q9BQA1 whole entry partner): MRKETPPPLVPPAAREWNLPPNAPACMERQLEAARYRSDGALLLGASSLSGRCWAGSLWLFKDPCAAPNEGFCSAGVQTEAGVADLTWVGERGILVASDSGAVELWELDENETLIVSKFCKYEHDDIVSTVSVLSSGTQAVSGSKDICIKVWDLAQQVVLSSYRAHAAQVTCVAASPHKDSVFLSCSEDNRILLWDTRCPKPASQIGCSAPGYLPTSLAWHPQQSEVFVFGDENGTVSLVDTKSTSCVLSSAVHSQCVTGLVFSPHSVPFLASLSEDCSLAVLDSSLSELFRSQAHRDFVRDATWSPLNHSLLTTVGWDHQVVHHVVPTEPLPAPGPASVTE
# EXPERIMENT_SUMMARY: PRMT5 biochemical IC50 assay with SAM as cofactor
# PARTICULARS: PRMT5, SAM as cofactor; read-out: SAM IC50

Inquiry: Fill in: IC50 on PRMT5 (Homo sapiens, UniProt O14744), entry C[C@@H]1CC[C@@H]([C@H]2CC[C@H](O)CC2)N(C(=O)C(=O)Nc2cncc(C(N)=O)c2)C1 (single isomer, unassigned)
Reply text: > 500 nM

Inquiry: Fill in: IC50 on PRMT5 (Homo sapiens, UniProt O14744), entry COc1ncc(NC(=O)C(=O)N2C[C@@H](C)CC[C@@H]2c2ccc3c(c2)CNC3=O)cc1C(N)=O (single isomer, unassigned)
Reply text: > 500 nM

Inquiry: Fill in: IC50 on PRMT5 (Homo sapiens, UniProt O14744), entry C[C@@H]1CC[C@@H](c2cc3cn[nH]c3s2)N(C(=O)C(=O)Nc2cncc(C(N)=O)c2)C1 (single isomer, unassigned)
Reply text: 50 to 500 nM

Inquiry: Fill in: IC50 on PRMT5 (Homo sapiens, UniProt O14744), entry Cc1cc(NC(=O)C(=O)N2C[C@H](C)CC[C@H]2c2ccc3[nH]c(N)nc3c2)cnc1C (racemic)
Reply text: 50 to 500 nM

Inquiry: Fill in: IC50 on PRMT5 (Homo sapiens, UniProt O14744), entry Cc1cc(NC(=O)C(=O)N2C[C@H](C)CC[C@H]2c2cc[nH]n2)cnc1N (single isomer, unassigned)
Reply text: > 500 nM

Inquiry: Fill in: IC50 on PRMT5 (Homo sapiens, UniProt O14744), entry CCc1cc(NC(=O)C(=O)N2C[C@H](C)CC[C@H]2c2ccc(N3CCN(C)CC3)cc2)cnc1N (single isomer, unassigned)
Reply text: > 500 nM

* * *

Exercise: for every item that follows, state its recorded IC50.
# MEASUREMENT_TARGET: PRMT5 (Homo sapiens)
# Construct: purchased Viva (custom protein)
# EXPERIMENT_SUMMARY: PRMT5 biochemical IC50 assay with MTA as cofactor
# PARTICULARS: PRMT5, MTA as cofactor; read-out: MTA IC50

Inquiry: Using the record for `CCc1cc(NC(=O)C(=O)N2C[C@@H](C)CC[C@@H]2c2ccc3sc(C4CCN(CC)CC4)nc3c2)cnc1N` , state its measured IC50.
Reply text: < 50 nM

Inquiry: Using the record for C[C@H]1CC[C@H](c2ccc(NCC(=O)N(C)C)cc2)N(C(=O)C(=O)Nc2cncc(C(N)=O)c2)C1 (single isomer, unassigned) , state its measured IC50.
Reply text: > 500 nM

Inquiry: Using the record for C[C@@H]1CC[C@@H](c2ccc3c(c2)OCO3)N(C(=O)C(=O)Nc2cncc(C(N)=O)c2)C1 (racemic) , state its measured IC50.
Reply text: < 50 nM

Inquiry: Using the record for COc1ncc(NC(=O)C(=O)N2C[C@H](C)CC[C@H]2c2ccc(F)cc2)cc1C(N)=O (single isomer, unassigned) , state its measured IC50.
Reply text: < 50 nM

Inquiry: Using the record for Cc1cc(NC(=O)C(=O)N2C[C@H](C)CC[C@H]2c2cccc3[nH]ccc23)cnc1N (single isomer, unassigned) , state its measured IC50.
Reply text: < 50 nM

Inquiry: Using the record for C[C@@H]1CC[C@@H](c2ccccn2)N(C(=O)C(=O)Nc2cncc(C(N)=O)c2)C1 (single isomer, unassigned) , state its measured IC50.
Reply text: > 500 nM
